molecular target: α4β7 integrin (Homo sapiens, UniProt P13612+P26010); construct: monitoring the capture of α4β7 integrin expressing cells on a recombinant MadCAM-1 extracellular domain-coated plate; endogenous in cells; host or cells: RPMI8866 cells; test: α4β7 Integrin Cell Capture Assay; type: cell-based; conditions: capture of α4β7 integrin expressing RPMI8866 cells on recombinant MadCAM-1 extracellular domain-coated plate; DMEM+0.5% FBS+0.5 mM MnCl2; read-out: EC50 α4β7
Sequence (P13612 34-1032): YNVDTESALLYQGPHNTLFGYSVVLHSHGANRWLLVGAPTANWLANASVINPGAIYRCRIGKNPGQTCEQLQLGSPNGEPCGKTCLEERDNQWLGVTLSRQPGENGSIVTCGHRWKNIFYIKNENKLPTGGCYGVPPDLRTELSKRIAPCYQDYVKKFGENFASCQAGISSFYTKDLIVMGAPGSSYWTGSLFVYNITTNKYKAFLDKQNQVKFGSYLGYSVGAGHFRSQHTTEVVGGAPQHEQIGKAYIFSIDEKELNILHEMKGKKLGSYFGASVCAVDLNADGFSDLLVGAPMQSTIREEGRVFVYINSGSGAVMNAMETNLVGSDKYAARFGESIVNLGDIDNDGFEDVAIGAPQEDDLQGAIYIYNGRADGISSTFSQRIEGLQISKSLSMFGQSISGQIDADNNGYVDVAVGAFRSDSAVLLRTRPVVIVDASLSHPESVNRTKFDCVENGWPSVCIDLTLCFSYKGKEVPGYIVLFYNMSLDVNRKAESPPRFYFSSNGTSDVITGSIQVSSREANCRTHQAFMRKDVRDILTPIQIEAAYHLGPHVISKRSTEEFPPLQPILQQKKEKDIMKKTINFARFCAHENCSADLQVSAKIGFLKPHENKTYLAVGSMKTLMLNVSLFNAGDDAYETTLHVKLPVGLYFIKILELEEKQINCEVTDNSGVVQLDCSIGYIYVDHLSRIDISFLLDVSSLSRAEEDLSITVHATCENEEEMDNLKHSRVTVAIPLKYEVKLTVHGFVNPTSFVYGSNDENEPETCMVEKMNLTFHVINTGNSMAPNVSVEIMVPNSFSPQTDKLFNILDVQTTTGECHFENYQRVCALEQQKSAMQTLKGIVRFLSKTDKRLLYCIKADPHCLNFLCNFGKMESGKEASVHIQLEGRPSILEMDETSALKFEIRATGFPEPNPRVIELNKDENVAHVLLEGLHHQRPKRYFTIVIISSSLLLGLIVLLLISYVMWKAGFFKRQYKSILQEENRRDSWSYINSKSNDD
Sequence (P26010 20-798): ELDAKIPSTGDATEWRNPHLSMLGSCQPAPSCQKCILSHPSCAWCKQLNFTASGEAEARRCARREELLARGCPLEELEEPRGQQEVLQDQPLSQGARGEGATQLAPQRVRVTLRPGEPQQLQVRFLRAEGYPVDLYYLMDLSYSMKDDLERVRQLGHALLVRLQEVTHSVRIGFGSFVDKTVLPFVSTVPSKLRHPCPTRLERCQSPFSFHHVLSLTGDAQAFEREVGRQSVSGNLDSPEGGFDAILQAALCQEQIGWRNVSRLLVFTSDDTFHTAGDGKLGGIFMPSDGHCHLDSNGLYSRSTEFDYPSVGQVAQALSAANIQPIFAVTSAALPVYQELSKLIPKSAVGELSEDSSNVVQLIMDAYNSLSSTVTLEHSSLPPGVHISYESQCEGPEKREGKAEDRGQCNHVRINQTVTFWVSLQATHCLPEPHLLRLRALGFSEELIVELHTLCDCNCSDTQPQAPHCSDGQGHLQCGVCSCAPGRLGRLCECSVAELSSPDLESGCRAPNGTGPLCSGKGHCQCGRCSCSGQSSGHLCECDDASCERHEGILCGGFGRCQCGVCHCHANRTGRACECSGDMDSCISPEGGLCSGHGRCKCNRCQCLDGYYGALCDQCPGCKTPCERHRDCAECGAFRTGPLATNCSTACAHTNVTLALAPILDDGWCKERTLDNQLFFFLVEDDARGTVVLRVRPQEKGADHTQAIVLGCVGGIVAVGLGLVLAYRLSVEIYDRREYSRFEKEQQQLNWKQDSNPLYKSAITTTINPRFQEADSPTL
pEC50: −log10 of the molar value.
Classify as follows. Reported pEC50 greater than or equal to 8: Condition met. Reported pEC50 below: Condition not met.

Solved cases below.
* COc1cccc(OC)c1-c1ccc(C[C@H](NC(=O)c2c(F)cc(NS(=O)(=O)c3ccc(-c4ccnc(F)c4)cc3)cc2F)C(=O)O)c2nccnc12 | Condition met
* CCOCc1cc(OC)c(-c2ccc(C[C@H](NC(=O)c3c(F)cc(NS(=O)(=O)c4ccc(-c5ccnc(F)c5)cc4)cc3F)C(=O)O)c3c2cnn3C)c(OC)c1 | Condition met

Is pEC50 at least 8? Consider Cn1c(=O)c(-c2ccc(C[C@H](NC(=O)c3c(Cl)cccc3Cl)C(=O)O)c3ccccc23)cc2ccccc21
Condition met

Is pEC50 at least 8? Consider O=C(N[C@@H](Cc1ccc(-c2c(Cl)cc(F)cc2Cl)c2cccnc12)C(=O)O)c1c(F)cc(N[C@H](c2ccccc2)C(F)(F)F)cc1F
Condition not met

Is pEC50 at least 8? Consider O=C(N[C@@H](Cc1ccc(-c2cccc[n+]2[O-])c2cccnc12)C(=O)O)c1c(Cl)cccc1Cl
Condition not met

###

molecular target: α4β7 integrin (Homo sapiens, UniProt P13612+P26010); construct: monitoring the capture of α4β7 integrin expressing cells on a recombinant MadCAM-1 extracellular domain-coated plate; endogenous in cells; host or cells: RPMI8866 cells; assay: α4β7 Integrin Cell Capture Assay; assay type: cell-based; details: capture of α4β7 integrin expressing RPMI8866 cells on recombinant MadCAM-1 extracellular domain-coated plate; DMEM+0.5% FBS+0.5 mM MnCl2; read-out: EC50 α4β7
Recorded measurements of pEC50, one per entry
Quick note: pEC50 means taking -log10 of the concentration in moles per liter.

Below, 5 compounds whose answers are already recorded.
- O=C(N[C@@H](Cc1ccc(-c2cccc3c2OCCC3)c2ccccc12)C(=O)O)c1c(Cl)cccc1Cl: 7.12
- COc1cc(F)cc(Cl)c1-c1ccc(C[C@H](NC(=O)c2c(Cl)cccc2Cl)C(=O)O)c2ncccc12 [Example 36]: 6.94
- Cc1cc(C)n(C)c(=O)c1-c1ccc(C[C@H](NC(=O)c2c(F)cc(N3CCOC[C@@H]3C(F)(F)F)cc2F)C(=O)O)c2ccccc12 (single isomer, unassigned) [Example 126]: 8.19
- CS(=O)(=O)Nc1cc(F)c(C(=O)N[C@@H](Cc2ccc(-c3c(Cl)cc(F)cc3Cl)c3cccnc23)C(=O)O)c(F)c1: 7.59
- CCOCc1cc(OC)c(-c2cnc(C[C@H](NC(=O)c3c(F)cc(NS(=O)(=O)c4ccc(-c5ccnc(F)c5)cc4)cc3F)C(=O)O)c3cccnc23)c(OC)c1: 7.61

Continue with the compound presented below.
Missing value: pEC50, α4β7 integrin (Homo sapiens, UniProt P13612+P26010), entry O=C(N[C@@H](Cc1ccc(-c2c(Cl)cc(F)cc2Cl)c2nccnc12)C(=O)O)c1c(F)cccc1F . Fill in?
6.87

###

biological target: α4β7 integrin (Homo sapiens, UniProt P13612+P26010); construct: monitoring the capture of α4β7 integrin expressing cells on a recombinant MadCAM-1 extracellular domain-coated plate; endogenous in cells; host or cells: RPMI8866 cells; assay: α4β7 Integrin Cell Capture Assay; type: cell-based; conditions: capture of α4β7 integrin expressing RPMI8866 cells on recombinant MadCAM-1 extracellular domain-coated plate; DMEM+0.5% FBS+0.5 mM MnCl2; read-out: EC50 α4β7
Recorded measurements of pEC50, one per entry
Quick note: pEC50 means taking -log10 of the concentration in moles per liter.

Below, 2 compounds whose answers are already recorded.
* O=C(N[C@@H](Cc1ccc(-c2ncc3ccccc3c2C(F)(F)F)c2ccccc12)C(=O)O)c1c(Cl)cccc1Cl [Example 115] | 7.66
* O=C(N[C@@H](Cc1ccc(-c2c(Cl)cc(F)cc2Cl)c2cccnc12)C(=O)O)c1c(F)cc(N2CCOCC2C(F)(F)F)cc1F (single isomer, unassigned) [Example 5] | 6.15

Given the compound Cc1cnc(-c2ccc(C[C@H](NC(=O)c3c(F)cc(N4CCOC[C@@H]4C(F)(F)F)cc3F)C(=O)O)c3ccccc23)nc1C [Example 141] , what is its reported pEC50?
8.44

###

target: α4β7 integrin (Homo sapiens, UniProt P13612+P26010); construct: monitoring the capture of α4β7 integrin expressing cells on a recombinant MadCAM-1 extracellular domain-coated plate; endogenous in cells; host or cells: RPMI8866 cells; test: α4β7 Integrin Cell Capture Assay; assay type: cell-based; details: capture of α4β7 integrin expressing RPMI8866 cells on recombinant MadCAM-1 extracellular domain-coated plate; DMEM+0.5% FBS+0.5 mM MnCl2; read-out: EC50 α4β7
pEC50: −log10 of the molar value.
Classify as follows. Reported pEC50 greater than or equal to 9: yes (1). Reported pEC50 below: no (0).

* CCn1cccc(-c2ccc(C[C@H](NC(=O)c3c(Cl)cccc3Cl)C(=O)O)c3ncccc23)c1=O [Example 22] | no (0)
* O=C(N[C@@H](Cc1ccc(-c2cccc3c2COCC3)c2cccnc12)C(=O)O)c1c(Cl)cccc1Cl [Example 20] | no (0)
* Cc1c(-c2ccc(C[C@H](NC(=O)c3c(F)cccc3F)C(=O)O)c3ncccc23)c(=O)n(C)c(=O)n1C (single isomer, unassigned) [Example 81] | no (0)
* CCOCc1cc(OC)c(-c2ccc(C[C@H](NC(=O)c3c(F)cc(NS(=O)(=O)c4ccc(-c5ccnc(F)c5)cc4)cc3F)C(=O)O)c3nsnc23)c(OC)c1 [Example 149] | yes (1)
* Cc1c(-c2ccc(C[C@H](NC(=O)c3c(Cl)cccc3Cl)C(=O)O)c3ncccc23)c(C(F)(F)F)nn1C [Example 18] | no (0)

Is pEC50 at least 9? Consider CCOCc1cc(OC)c(-c2ccc(C[C@H](NC(=O)c3c(F)cc(NS(=O)(=O)c4ccc(-c5ccnc(F)c5)cc4)cc3F)C(=O)O)c3ccncc23)c(OC)c1 (single isomer, unassigned) [Example 161]
yes (1)

Is pEC50 at least 9? Consider Cc1c(-c2ccc(C[C@H](NC(=O)c3c(Cl)cccc3Cl)C(=O)O)c3ncccc23)c(=O)n(C)c2ccc(C3CC3)cc12 [Example 71]
no (0)

Is pEC50 at least 9? Consider CC[C@@H](Nc1cc(F)c(C(=O)N[C@@H](Cc2ccc(-c3c(C)n(C)c(=O)n(C)c3=O)c3ccccc23)C(=O)O)c(F)c1)C(F)(F)F [Example 139]
yes (1)

Is pEC50 at least 9? Consider Cn1cc(F)cc(-c2ccc(C[C@H](NC(=O)c3c(Cl)cccc3Cl)C(=O)O)c3ncccc23)c1=O [Example 19]
no (0)

Is pEC50 at least 9? Consider CCOCc1cc(OC)c(-c2ncc(C[C@H](NC(=O)c3c(F)cc(N[C@H](CC)C(F)(F)F)cc3F)C(=O)O)c3ccccc23)c(OC)c1 [Example 168]
no (0)

Is pEC50 at least 9? Consider COc1cc(F)cnc1-c1ccc(C[C@H](NC(=O)c2c(Cl)cccc2Cl)C(=O)O)c2ncccc12 [Example 13]
no (0)

Is pEC50 at least 9? Consider Cc1cc(C(F)(F)F)c(-c2ccc(C[C@H](NC(=O)c3c(F)cc(N4CCOC[C@@H]4C(F)(F)F)cc3F)C(=O)O)c3ncccc23)c(=O)n1C (single isomer, unassigned) [Example 86]
yes (1)

###

target: α4β7 integrin (Homo sapiens, UniProt P13612+P26010); construct: monitoring the capture of α4β7 integrin expressing cells on a recombinant MadCAM-1 extracellular domain-coated plate; endogenous in cells; host or cells: RPMI8866 cells; experiment: α4β7 Integrin Cell Capture Assay; assay type: cell-based; conditions: capture of α4β7 integrin expressing RPMI8866 cells on recombinant MadCAM-1 extracellular domain-coated plate; DMEM+0.5% FBS+0.5 mM MnCl2; read-out: EC50 α4β7
Grouping by measured EC50 is done with the following cut points: lo = under 30 nM, med = from 30 nM up to 70 nM, hi = 70 nM and over

Solved cases below.
• Cn1c(=O)c(-c2ccc(C[C@H](NC(=O)c3c(F)cccc3F)C(=O)O)c3ncccc23)cc2ccccc21 = lo
• COc1c(-c2ccc(C[C@H](NC(=O)c3c(Cl)cccc3Cl)C(=O)O)c3ncccc23)ccc(F)c1F = hi
• Cn1ccnc(-c2ccc(C[C@H](NC(=O)c3c(Cl)cccc3Cl)C(=O)O)c3ncccc23)c1=O = med
• O=C(N[C@@H](Cc1ccc(-c2c(Cl)cc(F)cc2Cl)c2c1C=CCO2)C(=O)O)c1c(Cl)cccc1Cl = hi
• COc1c(F)cccc1-c1ccc(C[C@H](NC(=O)c2c(Cl)cccc2Cl)C(=O)O)c2ncccc12 = hi
• Cc1cc(C(F)(F)F)c(-c2ccc(C[C@H](NC(=O)c3c(F)cc(N4CCOC[C@@H]4C(F)(F)F)cc3F)C(=O)O)c3nccnc23)c(=O)n1C (atropisomer, axis not shown) = lo
• CCOCc1cc(OC)c(-c2ccc(CC(NC(=O)c3c(F)cc(NS(=O)(=O)c4ccc(-c5ccnc(F)c5)cc4)cc3F)C(=O)O)c3cnn(C)c23)c(OC)c1 (stereo not shown) = lo
• COc1cc(F)c(Cl)cc1-c1ccc(C[C@H](NC(=O)c2c(Cl)cccc2Cl)C(=O)O)c2ncccc12 = med
• Cc1cc(C)n(C)c(=O)c1-c1ccc(C[C@H](NC(=O)c2c(F)cc(N3CCOC[C@@H]3C(F)(F)F)cc2F)C(=O)O)c2ccccc12 (single isomer, unassigned) [Example 127] = lo
• Cn1c(=O)c(-c2ccc(C[C@H](NC(=O)c3c(Cl)cccc3Cl)C(=O)O)c3ncccc23)c(C(F)(F)F)c2cc(Br)ccc21 (single isomer, unassigned) [Example 65] = lo

Band for Cn1cccc(-c2ccc(C[C@H](NC(=O)c3c(Cl)cccc3Cl)C(=O)O)c3ncccc23)c1=O ?
hi

Band for O=C(N[C@@H](Cc1ccc(-c2cc(F)c(F)cc2OC2CC2)c2cccnc12)C(=O)O)c1c(F)cccc1F ?
hi

Reference for the values: patent US11179383B2
